- subject of test: EPHB1 (UniProt P54762)
- Sequence (P54762 whole entry, looked up): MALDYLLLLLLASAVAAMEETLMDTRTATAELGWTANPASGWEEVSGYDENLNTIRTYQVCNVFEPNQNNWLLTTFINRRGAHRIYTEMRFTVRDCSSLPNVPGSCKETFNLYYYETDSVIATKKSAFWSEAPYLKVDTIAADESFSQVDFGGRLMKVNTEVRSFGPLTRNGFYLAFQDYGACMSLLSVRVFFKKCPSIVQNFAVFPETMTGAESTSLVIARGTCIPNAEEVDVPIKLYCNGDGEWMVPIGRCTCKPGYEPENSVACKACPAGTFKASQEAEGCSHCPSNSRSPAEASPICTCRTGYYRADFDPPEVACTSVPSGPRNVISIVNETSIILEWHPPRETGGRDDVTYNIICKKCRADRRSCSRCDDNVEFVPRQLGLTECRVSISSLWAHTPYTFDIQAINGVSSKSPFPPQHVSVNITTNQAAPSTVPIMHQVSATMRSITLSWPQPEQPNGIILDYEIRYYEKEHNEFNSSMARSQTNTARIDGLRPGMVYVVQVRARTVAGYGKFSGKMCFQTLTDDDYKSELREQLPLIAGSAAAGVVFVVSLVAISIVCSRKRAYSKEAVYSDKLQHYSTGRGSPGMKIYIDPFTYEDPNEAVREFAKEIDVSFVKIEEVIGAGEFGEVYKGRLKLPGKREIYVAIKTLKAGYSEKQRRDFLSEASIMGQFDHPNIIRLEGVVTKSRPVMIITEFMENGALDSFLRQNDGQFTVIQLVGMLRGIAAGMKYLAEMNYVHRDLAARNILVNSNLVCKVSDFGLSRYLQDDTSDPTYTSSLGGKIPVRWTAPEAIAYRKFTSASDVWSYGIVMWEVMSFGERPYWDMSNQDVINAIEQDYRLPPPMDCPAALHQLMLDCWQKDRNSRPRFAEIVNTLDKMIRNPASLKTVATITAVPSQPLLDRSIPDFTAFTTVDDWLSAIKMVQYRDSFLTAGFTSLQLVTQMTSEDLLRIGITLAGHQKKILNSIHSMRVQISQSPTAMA
- method: phosphorylation enrichment, bacterial display (enrichment ratio); higher = better substrate or ligand; peptides without Tyr show the background;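 also: 11-residue human phosphosite peptides and single-mutation variants displayed on the E. coli surface, counted by deep sequencing, each peptide's frequency after selection divided by its frequency in the unselected input library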;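 also: frequency after pTyr selection over input frequency; kinase dosed for 20-30% of maximal phosphorylation in three min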
recorded metric: phosphorylation enrichment
Number only, please.

seq text: WEPFGYAVTRC [PTPRT_Y412]
phosphorylation enrichment: 0.591

seq text: IDSTPYGQWYE [RPS8_Y109_R110G]
phosphorylation enrichment: 0.596

seq text: AGIVDYNIIGW [MYH7_Y588]
phosphorylation enrichment: 0.636

seq text: LASSEYPVRRR [GALK1_Y236]
phosphorylation enrichment: 0.542

seq text: MGSYNYLGFAR [SPTLC2_Y178]
phosphorylation enrichment: 2.42

seq text: YPQARYHWLVL [APTX_Y214_K211Q]
phosphorylation enrichment: 0.72

Data request: State its phosphorylation enrichment on EPHB1 (UniProt P54762): DKVFTYIFIME [SCN4A_Y1074]
Data returned: 0.645

Data request: Record EAEPYYRSLRD [NPHS1_Y1139] : what is its phosphorylation enrichment with EPHB1 (UniProt P54762)?
Data returned: 0.487

Data request: Give recorded phosphorylation enrichment with EPHB1 (UniProt P54762) for the following sequence: EVVGKYSVHNA [MLH1_Y183_R182K]
Data returned: 0.363

Data request: API: value(readout=phosphorylation enrichment, system=EPHB1 (UniProt P54762)) for record KMKGEYYRYLA [YWHAG_Y130_D129E]
Data returned: 0.639

----------
- System: c-Abl (mouse)
- method: phosphorylation enrichment, bacterial display (enrichment ratio); higher = better substrate or ligand; peptides without Tyr show the background
If the reported phosphorylation enrichment equals or exceeds 0.6, assign T. If not, assign F.

Use the examples below as a reference point.
seq text: DNKALYDICFR [TUBB3_Y208_E205K]
subject of test: c-Abl (mouse)
class assignment: T
//
seq text: DVCKNYAKAKD [ALB_Y343_E345K]
subject of test: c-Abl (mouse)
class assignment: T
//
seq text: EPSVPYRGMVF [GLI3_Y104_T107M]
subject of test: c-Abl (mouse)
class assignment: F

Data request: Would you say SGGMDYGMVGG [TNRC6B_Y1382] shows phosphorylation enrichment at minimum 0.6?
Data returned: F

Data request: Assess whether reported phosphorylation enrichment for DRPASYLDKVR [KRT17_Y98_L95P] sits at 0.6 or higher.
Data returned: T

Data request: Entry HGEAYYSEVKA [PAK5_Y182_P187A] : is its phosphorylation enrichment no less than 0.6?
Data returned: F

Data request: State whether the measured phosphorylation enrichment reaches 0.6, counting equality as reaching it, for IDDNEYAFLKA [HNF4A_Y286_YF]
Data returned: T

----------
- subject of test: MERTK (UniProt Q12866)
- Sequence (Q12866 whole entry, looked up): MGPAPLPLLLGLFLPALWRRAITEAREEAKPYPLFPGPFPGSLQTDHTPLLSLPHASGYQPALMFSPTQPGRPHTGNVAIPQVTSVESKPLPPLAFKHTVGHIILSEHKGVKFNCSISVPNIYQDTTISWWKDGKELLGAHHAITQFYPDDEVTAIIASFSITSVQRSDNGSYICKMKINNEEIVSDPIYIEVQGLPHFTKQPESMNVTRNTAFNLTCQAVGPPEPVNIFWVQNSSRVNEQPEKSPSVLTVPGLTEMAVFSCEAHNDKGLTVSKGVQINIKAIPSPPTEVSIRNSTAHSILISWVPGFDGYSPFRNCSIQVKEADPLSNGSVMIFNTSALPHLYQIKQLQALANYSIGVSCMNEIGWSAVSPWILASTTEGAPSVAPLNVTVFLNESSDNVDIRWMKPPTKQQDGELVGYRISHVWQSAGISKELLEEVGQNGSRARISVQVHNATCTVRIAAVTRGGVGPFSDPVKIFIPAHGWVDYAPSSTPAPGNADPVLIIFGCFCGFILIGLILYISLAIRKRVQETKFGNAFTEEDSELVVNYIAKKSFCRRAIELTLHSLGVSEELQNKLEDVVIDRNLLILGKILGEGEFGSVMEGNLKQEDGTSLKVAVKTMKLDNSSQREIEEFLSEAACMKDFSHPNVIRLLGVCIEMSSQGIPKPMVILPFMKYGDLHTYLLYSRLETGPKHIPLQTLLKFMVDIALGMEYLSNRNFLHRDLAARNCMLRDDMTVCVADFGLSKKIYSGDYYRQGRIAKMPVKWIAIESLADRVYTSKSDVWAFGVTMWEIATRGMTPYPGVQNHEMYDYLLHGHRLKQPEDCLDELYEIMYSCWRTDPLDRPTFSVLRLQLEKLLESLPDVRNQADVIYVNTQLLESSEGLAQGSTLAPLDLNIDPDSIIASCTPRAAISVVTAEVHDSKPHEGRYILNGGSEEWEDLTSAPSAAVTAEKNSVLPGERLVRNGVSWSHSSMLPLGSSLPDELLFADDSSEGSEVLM
- method: phosphorylation enrichment, bacterial display (enrichment ratio); higher = better substrate or ligand; peptides without Tyr show the background
Reported phosphorylation enrichment values follow for various sequences
Lab note: jot down the number only; don't add units.

Example results:
seq text: IYLADYRIMEG [ALOX12B_Y318]
phosphorylation enrichment: 3.75

seq text: SHSMRYFYTAV [HLA-C_Y31_D33Y]
phosphorylation enrichment: 3.29

seq text: GENTVYAQVFN [LY9_Y603_M602V]
phosphorylation enrichment: 2.21

Data request: What does the record list as phosphorylation enrichment for DLAGRYFALKS [CKB_Y173_YF] ?
Data returned: 0.558

Data request: Fill in the blank: the reported phosphorylation enrichment of IKRIDYEFVEM [ADA_Y84_A83D] is ____.
Data returned: 0.375

Data request: Given KQLYAYKMLMA [TMC2_Y209] , state its recorded phosphorylation enrichment.
Data returned: 0.368

Data request: Requested read-out: phosphorylation enrichment. Entry: DTYDPYLDVAL [USP36_Y268]
Data returned: 0.412
